system: Drosophila S2 cl14 SmoIP sensor cells; test: normalized SmoIP GFP fluorescence (untreated unstimulated = 0%, untreated Hh-stimulated = 100%); higher = more Smo activation sensor fluorescence; conditions: stimulation: mock conditioned medium (-Hh); compound concentration: 2 uM; 24 h
Structures can show the parent of a compound that is named as a salt.
measurement_label: normalized SmoIP GFP fluorescence (%)

molecule	result_unit	obs_value
C[C@H](NC(=O)/C(C#N)=C/c1cccc(Br)n1)c1ccccc1	%	8.14
CN1CCN(C(c2ccccc2)c2ccccc2)CC1 [cyclizine-2hcl]	%	-5.15
CC(=O)Nc1cccc2c1c(Sc1ccc(Cl)cc1)c(C)n2CC(=O)O	%	-3.05
Cn1ncnc1[C@H]1c2n[nH]c(=O)c3cc(F)cc(c23)N[C@@H]1c1ccc(F)cc1	%	-2.82
CCOC(=O)[C@H](CCc1ccccc1)N[C@@H](C)C(=O)N1[C@@H](C(=O)O)C[C@@H]2CCC[C@@H]21	%	-16.3
CC(C)(C#N)c1cc(Cn2cncn2)cc(C(C)(C)C#N)c1	%	-2.96
O[C@H](CNC[C@@H](O)[C@H]1CCc2cc(F)ccc2O1)[C@@H]1CCc2cc(F)ccc2O1	%	19.8
CCc1cc2c(cc1CC)CC(NC[C@H](O)c1ccc(O)c3[nH]c(=O)ccc13)C2 [indacaterol-maleate]	%	-2.82
CN(C)Cc1ccc(S(=O)(=O)n2ccc(/C=C/C(=O)NO)c2)cc1	%	-5.8
CO[C@H]1/C=C\C=C(/C)C(=O)NC2=CC(=O)C(NCCN(C)C)=C(C[C@@H](C)C[C@H](OC)[C@H](O)[C@@H](C)/C=C(\C)[C@@H]1OC(N)=O)C2=O [17-DMAG,Hydrochloride-Salt]	%	44.8
CC1(C)O[C@@H]2[C@@H](CO[C@@]3(COS(N)(=O)=O)OC(C)(C)O[C@@H]23)O1 [Topiramate]	%	5.45
Cc1c(OCC(F)(F)F)ccnc1C[S+]([O-])c1nc2ccccc2[nH]1 (configuration not stated)	%	-1.13
Nc1nc(=O)n([C@@H]2CS[C@H](CO)O2)cc1F	%	-14.7
CN(C)CC(=O)Nc1ccc2[nH]c(=O)c3ccccc3c2c1	%	-1.97
COc1cc2c(N3CCN(C(=O)Nc4ccc(OC(C)C)cc4)CC3)ncnc2cc1OCCCN1CCCCC1	%	1.89
CCCCNc1ccc(C(=O)OCCN(C)C)cc1 [tetracaine-hydrochloride-pontocaine]	%	-6.34
Cc1ccc2nc(NCCN)c3ncc(C)n3c2c1	%	-9.4

---

tested on: Drosophila S2 cl14 SmoIP sensor cells; test: normalized SmoIP GFP fluorescence (untreated unstimulated = 0%, untreated Hh-stimulated = 100%); higher = more Smo activation sensor fluorescence; conditions: stimulation: mock conditioned medium (-Hh); compound concentration: 2 uM; 24 h
Counter-ions that a name gives are not always drawn.

molecule	result_unit	normalized SmoIP GFP fluorescence
COc1ccc(Cn2ccc3ccc(C(=O)NO)cc32)cc1	%	-8.59
Cc1ccc(C(=O)c2cc(O)c(O)c([N+](=O)[O-])c2)cc1 [tolcapone]	%	-2.48
O=S(=O)(c1ccccc1)N(CC(F)(F)F)c1ccc(C(O)(C(F)(F)F)C(F)(F)F)cc1	%	-1.85
CCOC(=O)[C@H](CCc1ccccc1)N[C@@H](C)C(=O)N1Cc2cc(OC)c(OC)cc2C[C@H]1C(=O)O [moexipril-hydrochloride]	%	3.4
Cc1cc(Nc2cc(N3CCN(C)CC3)nc(/C=C/c3ccccc3)n2)n[nH]1	%	23.8
Cc1ccc(C(=O)Nc2cccc(C(F)(F)F)c2)cc1Nc1nc(-c2cccnc2)nc2c1cnn2C	%	-9.04
COc1cc2ncnc(Sc3nnc(C)s3)c2cc1OC [sklb1002]	%	-0.491
CC(C)(Cc1ccc2ccccc2c1)NC[C@@H](O)COc1cccc(Cl)c1C#N	%	12.8
CC[C@H](NC(=O)[C@H](C)NC)C(=O)N1C[C@@H](O)C[C@H]1Cc1c(-c2[nH]c3cc(F)ccc3c2C[C@@H]2C[C@H](O)CN2C(=O)[C@H](CC)NC(=O)[C@H](C)NC)[nH]c2cc(F)ccc12	%	-2.08
CC(=O)Nc1ccc(C(=O)Nc2ccccc2N)cc1 [ci994-tacedinaline]	%	-4.13
CCOC(=O)N1CCC(=C2c3ccc(Cl)cc3CCc3cccnc32)CC1 [Loratadine]	%	11
O=C(/C=C\n1cnc(-c2cc(C(F)(F)F)cc(C(F)(F)F)c2)n1)NNc1cnccn1	%	1.33
CCN1CCCC1CNC(=O)c1cc(S(=O)(=O)CC)c(N)cc1OC (stereo not given) [Amisulpride]	%	3.51
Nc1nnc(-c2cccc(Cl)c2Cl)c(N)n1 [lamotrigine]	%	-3.5
Cc1cc(F)c(Nc2ncnc3cc(OCc4ccccc4)ccc23)cc1O	%	-3.39
CCc1c(O)cc(O)c(C(=O)c2ccc(OCCN3CCOCC3)c(OC)c2)c1CC(=O)N(CCOC)CCOC	%	-12.4
Cc1cc(OCc2nnc(SC3CCCC3)n2-c2cccnc2)ccc1-c1ccc(S(C)(=O)=O)cc1	%	13.7
CC(C)C[C@H](NC(=O)[C@H](Cc1ccccc1)NC(=O)c1cnccn1)B(O)O [Bortezomib]	%	52.4
C=CCc1cccc(/C=N/NC(=O)CN2CCN(Cc3ccccc3)CC2)c1O	%	-5.53
Cc1cc(C)c(Nc2ccnc(Nc3ccc(C#N)cc3)n2)c(C)c1 [dapivirine]	%	-4.13
O=C1CN2Cc3c(ccc(Cl)c3Cl)N=C2N1 [anagrelide-hydrochloride]	%	-2.31
C[C@]12CC[C@@H]3c4ccc(O)cc4C[C@@H](CCCCCCCCC[S+]([O-])CCCC(F)(F)C(F)(F)F)[C@H]3[C@@H]1CC[C@@H]2O (stereo not given in full) [Fulvestrant]	%	12.4
Cc1cccc(C)c1OCC(=O)N[C@@H](Cc1ccccc1)[C@@H](O)C[C@H](Cc1ccccc1)NC(=O)[C@H](C(C)C)N1CCCNC1=O [Lopinavir]	%	6.52
Cc1c(C(=O)NN2CCCCC2)nn(-c2ccc(Cl)cc2Cl)c1-c1ccc(Cl)cc1	%	2.46
CC(=O)N1CCN(CCOc2ccc(C3CCN(C4=Nn5c(nnc5C(F)(F)F)CC4)CC3)cc2)CC1	%	15
CNC[C@H](O)c1cccc(O)c1 [Phenylephrine-hydrochloride]	%	-14.9
CNC(=O)Nc1ccc(-c2nc(N3CC4CCC(C3)O4)c3cnn(C4CCC5(CC4)OCCO5)c3n2)cc1	%	-8.33
CC1(C)CC(=O)c2c(C(F)(F)F)nn(-c3ccc(C(N)=O)c(N[C@H]4CC[C@H](OC(=O)CN)CC4)c3)c2C1	%	83.8
C[C@]12CC[C@@H]3c4ccc(O)cc4CC[C@H]3[C@@H]1CCC2=O [Estrone]	%	5.12
CC(C)(Oc1ccc(C2CC2(Cl)Cl)cc1)C(=O)O (stereo not given) [ciprofibrate]	%	-5.35
Nc1nccc(Oc2ccc(NC(=O)c3c[nH]cc(-c4ccc(F)cc4)c3=O)cc2F)c1Cl	%	-6.34
Cn1cc(-c2ccc3nnc(C(F)(F)c4ccc5ncccc5c4)n3n2)cn1	%	-2.42
N#C/C(=C\c1ccc(O)c(O)c1)C(=O)NCc1ccccc1	%	9.54
COc1ccc2c(Oc3ccc(NC(=O)c4c(C)n(CC(C)(C)O)n(-c5ccccc5)c4=O)nc3)ccnc2c1	%	-1.11
CC1(C)CCC2=C(O1)c1ccccc1C(=O)C2=O [beta-lapachone]	%	-0.264

---

normalized SmoIP GFP fluorescence: recorded values
tested on: Drosophila S2 cl14 SmoIP sensor cells; test: normalized SmoIP GFP fluorescence (untreated unstimulated = 0%, untreated Hh-stimulated = 100%); higher = more Smo activation sensor fluorescence; settings: stimulation: mock conditioned medium (-Hh); compound concentration: 2 uM; 24 h;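 further: flow cytometry read-out as median GFP intensity of gated cells, compounds added 30 min before Hh-conditioned or mock medium, mock-treated cells serving as unstimulated baseline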
Counter-ions that a name gives are not always drawn.

compound	normalized SmoIP GFP fluorescence [%]
CN(C)Cc1cccc(N=C(c2ccccc2)c2c(O)[nH]c3cc(C(=O)N(C)C)ccc23)c1	-3.71
NC(=O)N1c2ccccc2CC(=O)c2ccccc21 [Oxcarbazepine]	2.97
N#Cc1cc(CN2CCC(Nc3ncnc4sc(Cl)cc34)CC2)ccc1F	-12.6
Nc1ncnc2c1c(-c1cnc3[nH]ccc3c1)nn2C1CCCC1	-17.9
CCOc1cc2ncc(C#N)c(Nc3ccc(OCc4ccccn4)c(Cl)c3)c2cc1NC(=O)/C=C/CN(C)C [Neratinib(HKI-272)]	-15.6
CC(=O)OCC(=O)NCCCOc1cccc(CN2CCCCC2)c1 [roxatidine-acetate-hcl]	-6.97
CN(C)Cc1cccc(N/C(=C2\C(=O)Nc3cc(C(N)=O)ccc32)c2ccccc2)c1	-1.88
CN1CCc2c(c3ccccc3n2Cc2ccc(C(=O)NO)cc2)C1 [tubastatin-a-hcl]	-1.83
CS(=O)(=O)c1cccc(CNc2nc(Nc3ccc4c(c3)CCC(=O)N4)ncc2C(F)(F)F)c1	71.5
CC(C)C[C@@H](C(=O)N[C@H](C(=O)OC1CCCC1)c1ccccc1)[C@H](O)C(=O)NO [CHR-2797(Tosedostat)]	3.72
CCc1ccc(OCc2ccccc2C(=O)Nc2ccc3nc(C)cc(N)c3c2)cc1	14.4
CS(=O)(=O)N1CCc2c(-c3cnc(N)nc3)nc(N3CCOCC3)nc21	-15.8
CC[C@H]1OC(=O)[C@H](C)[C@@H](O[C@H]2C[C@@](C)(OC)[C@@H](O)[C@H](C)O2)[C@H](C)[C@@H](O[C@@H]2O[C@H](C)C[C@H](N(C)C)[C@H]2O)[C@](C)(OC)C[C@@H](C)C(=O)[C@H](C)[C@@H](O)[C@]1(C)O [clarithromycin]	-6.97
O=C(O)C(O)Cc1ccc(O)c(O)c1 (stereo not drawn) [Sodium-Danshensu]	-2.82
c1ccc(CC2=NCCN2)cc1 [tolazoline-hcl]	-1.74
O=C(O)/C=C/c1ccc(Cn2ccnc2)cc1 [Ozagrel]	-2.46
CNS(=O)(=O)Cc1ccc2[nH]cc(CCN(C)C)c2c1 [Sumatriptan-succinate]	1.57
CC(C(=O)O)c1ccc2c(c1)CC(=O)c1ccccc1S2 (stereo not drawn) [zaltoprofen]	-1.97

Data origin, for the record: the supplement of paper PMC5662767
